// data source = patent US9833497B2

- Tested on: Aeromonas hydrophila
- procedure_text: MIC against Gram-negative bacteria: Aeromonas hydrophila
- Assay type: cell-based
- condition_description: A. hydrophila; 10 h cultivation at 37° C.; 5×10^5 CFU/mL
reported_property: MIC (µg/mL)
Supply the numeric figure in µg/mL, leaving out any unit text.

Here's what some known entries look like.
[[record]]
substance = "PRT318 (DVDECEKNPCAGGECINNQGSYTCQCRAGYQSTLTRTECR; listed as Homo sapiens)"
experimental_system = "Aeromonas hydrophila"
quantitative_readout = 50

[[record]]
substance = "PRT425 (DVDECAMGTHTCQPGFLCQNTKGSFYCQARQRCMDGFLQDPEGNCV; listed as Homo sapiens)"
experimental_system = "Aeromonas hydrophila"
quantitative_readout = 25

[[record]]
substance = "PRT427 (DVNECETGVHRCGEGQVCHNLPGSYRCDCKAGFQRDAFGRGCI; listed as Homo sapiens)"
experimental_system = "Aeromonas hydrophila"
quantitative_readout = 12.5

[[record]]
substance = "PRT434 (DVNECATENPCVQTCVNTYGSFICRCDPGYELEEDGVHCS; listed as Homo sapiens)"
experimental_system = "Aeromonas hydrophila"
quantitative_readout = 50

[[record]]
substance = "PRT426 (DINECTSLSEPCRPGFSCINTVGSYTCQRNPLICARGYHASDDGTKCV; listed as Homo sapiens)"
experimental_system = "Aeromonas hydrophila"
quantitative_readout = 12.5

[[record]]
substance = "PRT428 (DVNECWASPGRLCQHTCENTLGSYRCSCASGFLLAADGKRCE; listed as Homo sapiens)"
experimental_system = "Aeromonas hydrophila"
quantitative_readout = 25


Shift focus to the following entry.
Prompt line: Lab note: need MIC with Aeromonas hydrophila for entry PRT416 (DVDECAPPAEPCGKGHRCVNSPGSFRCECKTGYYFDGISRMCV; listed as Homo sapiens) , please look it up.
Response line: 25
